Source listed as PubChem BioAssay AID1645882.

Target: Rap guanine nucleotide exchange factor 3 (Homo sapiens)
Test: Validation qHTS for antagonist of cAMP-regulated guanine nucleotide exchange factor 3 (EPAC1); also: nearly all actives have a fitted effect of over 75% in size; also: potency is read from the fitted curve at half-maximal effect
Conditions: EPAC1 Rap1B-BODIPY-GDP exchange, fluorescence; series mostly up to 150 µM
The whole screen tested about 16,000 compounds, of which about 120 (0.75%) were called active. Not shown: some 4% with an inconclusive outcome. Only a selection was taken, and actives are over-represented in it overall.
MEASUREMENT_LABEL: Potency

Worked cases, Potency given:
1) C=C1c2c(Cl)ccc(O)c2C(O)=C2C(=O)[C@]3(O)C(O)=C(C(N)=O)C(=O)C(N(C)C)C3C(O)C12 (stereo not given in full) | inactive
2) Cc1ncc2c(c1CNC(=O)c1ccsc1)CCN(C(=O)c1c(F)cccc1Cl)C2 | inactive
3) CCCCCCC[n+]1ccc(C)c2ccccc21 | inactive
4) COc1cccc(-c2nc(N3CCNCC3)c3ccccc3n2)c1 | inactive
5) Cc1cccc(C(=O)NCc2nc(-c3cccc(NC(=O)C4CCCN(C)C4)c3)oc2C)n1 (stereo not given) | inactive

// for each molecule in input: emit Potency
1. c1ccc(Cc2nnc3n2CCN(Cc2cnc(-c4ccccc4)s2)CC3)cc1
2. Cc1cccc(CNC(=O)c2cnn(-c3nccc(-c4ccccc4F)n3)c2C)n1

inactive
inactive

// for each molecule in input: emit Potency
1. COC(=O)c1ccc(CN2CCOc3ccc(C(O)c4cccnc4)cc3C2)cc1 (stereo not given)
2. CCCCCCCCCCCCCCCC[n+]1ccc(C)c2ccccc21
3. CCCCCCCCCCCC[n+]1ccc(C)c2ccccc21

1. inactive
2. 63.1 µM (active)
3. inactive

---

Molecular target: Rap guanine nucleotide exchange factor 3 (Homo sapiens)
Test: Validation qHTS for antagonist of cAMP-regulated guanine nucleotide exchange factor 3 (EPAC1); also: nearly all actives have a fitted effect of over 75% in size
Details: EPAC1 Rap1B-BODIPY-GDP exchange, fluorescence; series mostly up to 150 µM
Out of some 16,000 compounds screened, about 120 (0.75%) were called active. Another 4% or so got no clear call; they are omitted. Calls come from the whole dose curve; as a rule, active = well fitted inhibition curve with a large enough effect; inconclusive = small, poorly fitted or top-dose-only effect; inactive = no such curve, though single readings can be large or run the other way. Many of the other results were omitted from the sample, so actives are more common in it than they were.
Hi! Could you answer with just one of these? active, inactive

1) Fc1ccc(N2CCN(Cc3ccc4c(c3)CN(Cc3cccn3-c3cccnc3)CCO4)CC2)cc1 | inactive
2) FC(F)(F)c1ccccc1-c1cncnc1NCCc1cnc[nH]1 | inactive
3) CCCc1nc(C(C)(C)O)c(C(=O)OCc2oc(=O)oc2C)n1Cc1ccc(-c2ccccc2-c2nn[nH]n2)cc1 | inactive
4) CC(=O)/C=C/c1ccc2c(c1)S(=O)(=O)N(C1CCCC1)[C@H]2CC(C)=O | active

As a next step, examine the compound that follows.
Assay result, entry `C[N+](C)(CCCCCC[N+](C)(C)C1c2ccccc2-c2ccccc21)C1c2ccccc2-c2ccccc21` — outcome?
inactive

---

Biological target: Rap guanine nucleotide exchange factor 3 (Homo sapiens) (UniProt O95398)
Sequence (O95398 whole entry, looked up): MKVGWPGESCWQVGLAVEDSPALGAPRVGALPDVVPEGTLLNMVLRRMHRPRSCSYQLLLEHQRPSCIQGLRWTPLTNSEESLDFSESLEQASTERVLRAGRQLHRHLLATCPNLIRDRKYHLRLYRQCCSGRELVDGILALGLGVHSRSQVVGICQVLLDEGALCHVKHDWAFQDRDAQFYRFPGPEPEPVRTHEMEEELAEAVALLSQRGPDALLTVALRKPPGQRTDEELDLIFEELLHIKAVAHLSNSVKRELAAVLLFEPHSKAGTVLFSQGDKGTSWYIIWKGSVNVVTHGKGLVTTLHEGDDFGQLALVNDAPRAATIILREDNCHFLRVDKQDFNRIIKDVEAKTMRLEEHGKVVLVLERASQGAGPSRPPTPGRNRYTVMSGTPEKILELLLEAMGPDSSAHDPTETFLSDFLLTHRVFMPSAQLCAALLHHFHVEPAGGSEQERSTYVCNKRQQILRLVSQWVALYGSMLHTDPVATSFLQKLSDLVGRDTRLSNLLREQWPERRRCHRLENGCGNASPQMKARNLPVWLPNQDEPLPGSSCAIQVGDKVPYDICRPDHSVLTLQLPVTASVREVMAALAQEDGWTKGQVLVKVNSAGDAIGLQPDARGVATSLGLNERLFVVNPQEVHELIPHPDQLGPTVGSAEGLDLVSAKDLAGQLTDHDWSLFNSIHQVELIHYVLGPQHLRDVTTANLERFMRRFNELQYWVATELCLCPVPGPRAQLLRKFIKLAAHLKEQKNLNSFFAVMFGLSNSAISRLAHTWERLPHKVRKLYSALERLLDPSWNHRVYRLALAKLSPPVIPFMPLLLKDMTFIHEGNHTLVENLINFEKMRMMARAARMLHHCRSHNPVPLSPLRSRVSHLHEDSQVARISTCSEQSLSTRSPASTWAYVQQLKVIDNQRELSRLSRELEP
Assay: Validation qHTS for antagonist of cAMP-regulated guanine nucleotide exchange factor 3 (EPAC1); also: nearly all actives have a fitted effect of over 75% in size
Settings: EPAC1 Rap1B-BODIPY-GDP exchange, fluorescence; series mostly up to 150 µM
The campaign covered roughly 16,000 compounds. About 120 (0.75%) were called active. Not shown: some 4% with an inconclusive outcome. Calls follow the shape of the dose curve; as a rule, active = well fitted inhibition curve with a large enough effect; inconclusive = small, poorly fitted or top-dose-only effect; inactive = no such curve, though single readings can be large or run the other way. The list comes from a sample in which actives are over-represented; it also holds close analogues and randomly drawn compounds.
Hi! Could you answer with just one of these? active, inactive

Record excerpt, results attached:
1) O=c1c(-c2ccc(Cl)cc2)nc2cnc(N3CCNCC3)nc2n1CCc1ccccc1 | inactive
2) Oc1ccc(Cl)cc1Sc1cc(Cl)ccc1O | inactive
3) O=C(Nc1cccc(C(=O)Nc2ccc(S(=O)(=O)O)c3cc(S(=O)(=O)O)cc(S(=O)(=O)O)c23)c1)Nc1cccc(C(=O)Nc2ccc(S(=O)(=O)O)c3cc(S(=O)(=O)O)cc(S(=O)(=O)O)c23)c1 | active
4) CN(CCOc1ccc(CC2SC(=O)NC2=O)cc1)c1ccccn1 (centres undefined) | inactive
5) COc1ccc(CNc2nc(-c3ccccc3OC)nc3ccccc23)c(OC)c1 | inactive

Assay result, entry `Cc1ccc(C(=O)NCCc2nnc3n2CCN(Cc2cc(C)cc(C)c2)CC3)cc1` — outcome?
inactive

Assay result, entry `Cc1ccc(C(=O)Nc2ccc(S(=O)(=O)O)c3cc(S(=O)(=O)O)cc(S(=O)(=O)O)c23)cc1NC(=O)c1cccc(NC(=O)Nc2cccc(C(=O)Nc3cc(C(=O)Nc4ccc(S(=O)(=O)O)c5cc(S(=O)(=O)O)cc(S(=O)(=O)O)c45)ccc3C)c2)c1` — outcome?
inactive

Assay result, entry `O=C(c1csnn1)N1CCC[C@@]2(CCN(c3ncccn3)C2)C1` — outcome?
inactive

Assay result, entry Cc1c(C)c2c(c(C)c1O)CCC(C)(COc1ccc(CC3SC(=O)NC3=O)cc1)O2 (centres undefined) — outcome?
active
